system: SK-OV-3 ovarian; assay: NCI tumour cell line growth inhibition, 48 h
Each entry below carries its recorded TGI.
measurement_label: TGI

O=C1C(Cl)C(c2ccccc2)N1n1cnc2ccccc2c1=O (stereo not given) | > 100 µM
O=C1NC(=O)C(c2c[nH]c3cc(Br)ccc23)=C1c1cn(C(c2ccccc2)(c2ccccc2)c2ccccc2)cn1 | > 100 µM
CCC1OC2C(CC=C(C)C)=C3OC(C)(O)C(C)(CC)C(OC(=O)c4ccccc4)C3=C3OC(=O)C=C1C32 (stereo not given) | > 100 µM
Cc1ccc2nc(-c3ccc(N)c(I)c3)sc2c1 | > 100 µM
COc1ccc(-n2cc(-c3ccc(Cl)c(Cl)c3)nc2SCc2cccc(C#N)c2)cc1 | > 100 µM
CCN1C(=O)N(CC)C2C1NC(=S)N2/N=C/C=C/c1cccs1 (stereo not given) | > 100 µM
O=C(C(=O)N1CCc2ccccc21)c1c[nH]c2ccccc12 | > 10 µM
CCOC(=O)CC1c2ccc(O)cc2OC(=O)C1c1ccc([N+](=O)[O-])cc1 (stereo not given) | 85.5 µM
COC(=O)c1ccc(/C=C2\N=C(C)OC2=O)cc1 | > 100 µM
O=C(Nc1cccc(Cl)c1Cl)c1cccc(NC2=C(Cl)C(=O)N(Cc3ccccc3)C2=O)c1 | > 100 µM

----------
system: SW-620 colon; experiment: NCI tumour cell line growth inhibition, 48 h
measurement_label: TGI

CN(C)C(=O)NCCN1CCCCCc2ccccc21 | > 100 µM
COC(=O)c1ccc(/C=C2\N=C(C)OC2=O)cc1 | > 100 µM
CCOC(=O)C(N)CSC(=O)NC (stereo not drawn) | 308 µM
CN(C)C(=O)OCOC(=O)N(C)C | > 100 µM
Cc1[nH][nH]c(=O)c1C=Nc1ccc(-c2nc3ccccc3[nH]2)cc1 | 55.7 µM
Cc1cccc(/C=N/NC(=S)NCCc2ccccn2)n1 | > 100 µM
O=C(C(=O)N1CCc2ccccc21)c1c[nH]c2ccccc12 | > 10 µM
CCN1c2nc3ccccc3nc2N(CC)c2nc3ccccc3nc21 | > 100 µM

----------
test system: A549 NSCLC; experiment: NCI tumour cell line growth inhibition, 48 h; in the data active = GI50 below about 0.43 µM; inactive = the rest
Classes used: active, inactive

Cc1c[n+](Cc2ccc3ccccc3c2)cn1Cc1ccc2ccccc2c1 | inactive
Nc1nc(Nc2ccccc2)c2ncn(Cc3cc4c(cc3Br)OCO4)c2n1 | active
Cc1ccc(Nc2nc(N)c(C(=O)c3ccc(C#N)cc3)s2)cc1 | inactive
O=C(O)c1cc(O)c2c(c1)C(C1c3cc(C(=O)O)cc(O)c3C(=O)c3c(OC4OC(CO)C(O)C(O)C4O)cccc31)c1cccc(OC3OC(CO)C(O)C(O)C3O)c1C2=O (configuration not stated) | inactive
Cc1n(Cc2ccc3ccccc3c2)cc[n+]1Cc1ccc2ccccc2c1 | inactive
CCN(CC)CCNCC(=O)Oc1ccc(/C=C/C(=O)CC(=O)/C=C/c2ccc(OC(=O)CNCCN(CC)CC)c(OC)c2)cc1OC | inactive
CN(C)Cc1c[nH]c2c1C(=O)c1c(c(O)c3ccccc3c1O)C2=O | inactive
COc1cc(/C=C2\C(=O)Nc3ccc(F)cc32)cc(OC)c1OC | inactive
CCOC(=O)N1CCN(C(=O)c2ccc(C(F)(F)F)nc2Nc2cc(Cl)ccc2C)CC1 | inactive
CCN1C(=O)N(CC)C2C1NC(=S)N2/N=C/C=C/c1cccs1 (configuration not stated) | inactive
CC(=O)OCC1OC([S-])C(OC(C)=O)C(OC(C)=O)C1OC(C)=O.CC[PH+](CC)CC.CC[PH+](CC)CC.[Au].[Au] (configuration not stated) | inactive
CC(=O)c1c(CBr)n([O-])c2ccccc2[n+]1=O | inactive

----------
test system: SNB-78 CNS; test: NCI tumour cell line growth inhibition, 48 h
measurement_label: TGI

O=C(CN1CCCCC1)N1CCc2c([nH]c3ccccc23)C1c1cccnc1 (centres undefined) | > 100 µM
O=C(CSc1nnc(-c2ccccc2NC(=O)C(F)(F)F)c(=O)[nH]1)NC(=O)Nc1ccccc1 | > 100 µM
OCC1OC(n2cnc3c2NC=NC[C@H]3O)C(O)C1O (some centres undefined) | > 450 µM
COC(=O)/C=C/C1C(C(=O)OC)C2(C(=O)OC)CCC1(C(=O)OC)N2 (centres undefined) | > 100 µM
COc1ccc(C(=O)C(CO)Oc2ccccc2OC)cc1OC (centres undefined) | > 100 µM
CC(=O)OCC1OC([S-])C(OC(C)=O)C(OC(C)=O)C1OC(C)=O.CC[PH+](CC)CC.CC[PH+](CC)CC.[Au].[Au] (centres undefined) | 2.79 µM
N#CC(/C(=N/NC(=O)C(=O)NN)C(=O)NC12CC3CC(CC(C3)C1)C2)c1ccccc1 (centres undefined) | > 100 µM
N#CC(C#N)=c1[nH]c2cccc3c2-c2c(cccc2c3=C(C#N)C#N)[nH]1 | > 100 µM
N#CC(C(=O)/C(=N/Nc1nc(=S)[nH]n1N)C(C#N)c1ccccc1)c1ccccc1 (centres undefined) | > 100 µM

----------
system: NCI-H460 lung
Classes used: yes (1) (active), no (0) (inactive)

O=C(CCCN1CC=C(n2c(=O)[nH]c3ccccc32)CC1)c1ccc(F)cc1 | no (0)
O=C(Nc1ccc(Cl)cc1F)c1cc(Br)ccc1O | no (0)
COc1cc(/C=C2\C(=O)Nc3ccc(F)cc32)cc(OC)c1OC | no (0)
COc1cc(NC(C)CCCN)c2nccc(C)c2c1OC (configuration not stated) | no (0)
O=c1[nH]c2cc(Cl)ccc2n1C1CCN(CCCC(c2ccc(F)cc2)c2ccc(F)cc2)CC1 | no (0)
CC(=O)Oc1ccccc1C(=O)N=C1[Se]CCCN1C(=O)c1ccccc1OC(C)=O | no (0)
OCCCCC#Cc1ccccc1C#Cc1cccc(O)c1 | no (0)
CCN1C(=O)N(CC)C2C1NC(=S)N2/N=C/C=C/c1cccs1 (configuration not stated) | yes (1)
Nc1nc(Br)nc2c1ncn2C1CC(O)C(CO)O1 (configuration not stated) | no (0)
COc1ccc(C2C(C#N)=C(N)OC3=C2COc2ccc(F)cc23)cc1OC (configuration not stated) | no (0)
CC(=O)Oc1ccccc1C(=O)N=C1[Se]CCN1C(=O)c1ccccc1OC(C)=O | yes (1)
COc1ccc(/C=c2/sc3n(c2=O)C(c2ccc(OC)c(OC)c2)C2=C(N=3)c3cc(F)ccc3OC2)cc1 (configuration not stated) | no (0)

----------
Catalogue of TGI values
tested on: SR leukemia; assay: NCI tumour cell line growth inhibition, 48 h
measurement_label: TGI

O=C(O)c1nc(-c2ccccn2)c(-c2ccccn2)nc1C(=O)O | 9.91 µM
COc1cc(NC(C)CCCN)c2nccc(C)c2c1OC (stereo unspecified) | 60.7 µM
CCN1C(=O)N(CC)C2C1NC(=S)N2/N=C/C=C/c1cccs1 (stereo unspecified) | > 38.9 µM
CC1(C)c2ccccc2C(=O)C12CCC(=O)CC2 | > 100 µM
CC1=C(C(N)=O)C(c2ccncc2)C(C#N)=C2SCC(=O)N12 (stereo unspecified) | > 100 µM
O=C(O)c1c(-c2nccc3ccccc23)[nH]c(-c2ccccc2)c1S(=O)(=O)O | > 100 µM
CCOC(=O)CC1CCN(C(=O)c2ccccc2)C2Cc3c([nH]c4ccccc34)C12C[N+](=O)[O-] (stereo unspecified) | > 100 µM
Nc1ccncc1/C=C1/C(=O)Nc2ccccc21 | > 100 µM
COc1ccc(-n2cc(-c3ccc(Cl)c(Cl)c3)nc2SCc2cccc(C#N)c2)cc1 | > 100 µM
Cc1cccc(/C=N/NC(=S)NCCc2ccccn2)n1 | > 100 µM
CCOC(=O)C(N)CSC(=O)NC (stereo unspecified) | 158 µM
O=C1c2ccn(CCCCNC(CO)(CO)CO)c2C(=O)c2c1c(O)c1ccccc1c2O | 5.76 µM
CC(C)c1ccccc1S(=O)c1ccccc1C(C)(C)O (stereo unspecified) | > 100 µM
CC1(C)OCC2OC3(c4nc(C#N)c(N)o4)OC(C)(C)OC3C2O1 (stereo unspecified) | > 100 µM
COc1cccc(OC)c1/C=C1\OC(=O)c2cccc(OC)c21 | > 24.3 µM
O=C1C(Cl)C(c2ccccc2)N1n1cnc2ccccc2c1=O (stereo unspecified) | > 100 µM
COc1ccc2c(c1)CC[C@@H]1[C@@H]2CC[C@]2(C)C(=O)/C(=C/c3ccc(OC)c(OC)c3)C[C@@H]12 | > 100 µM
CC(C)=CCS(=O)c1ccccc1NC1=CC(=O)CC(C)(C)C1 (stereo unspecified) | > 100 µM
N#Cc1sc2nc(/C=C3/C=CC=CC3=O)c(O)n2c1N | 60.3 µM
C#C[C@]1(O)CC[C@H]2[C@@H]3CC=C4c5sc(Nc6ccccc6)nc5CC[C@]4(C)[C@H]3CC[C@@]21C | > 100 µM
O=C1NC(=O)C(c2c[nH]c3cc(Br)ccc23)=C1c1cn(C(c2ccccc2)(c2ccccc2)c2ccccc2)cn1 | 32.3 µM
CCCS(=O)(=O)Nc1ccc(Nc2c3ccccc3nc3ccccc23)c(OC)c1 | 0.85 µM
Cc1[nH]n(-c2cccc(Cl)c2)c(=O)c1/C=C1\C=Nc2ccc(Br)cc21 | 3.99 µM
Cc1n(Cc2ccc3ccccc3c2)cc[n+]1Cc1ccc2ccccc2c1 | 2.47 µM
N#Cc1c(-c2ccccc2)[nH]c2ccccc2c1=O | > 100 µM
O=C(CN(C1CCCCC1)C1CCCCC1)Nc1ccc(S(=O)(=O)c2ccc(NC(=O)CN(C3CCCCC3)C3CCCCC3)cc2)cc1 | 1.52 µM
CC(=O)Oc1ccc(Nc2c3ccccc3nc3ccccc23)cc1 | > 100 µM
CC(=O)OC1CC2c3cccc4c3C(CC2N(C)C1=O)CN4C(=O)c1ccccc1 (stereo unspecified) | 94.8 µM
O=[N+]([O-])c1ccc(-n2nnc(C3=NCCCN3)c2-c2ccc(Cl)cc2)cc1 | > 100 µM
Cc1cn(C2CC(N(O)Cc3ccccc3)C(CO)O2)c(=O)[nH]c1=O (stereo unspecified) | > 100 µM
O=C(O)c1ccccc1-c1ccccc1C(=O)Nc1ccc2c(c1)Cc1cc(F)ccc1-2 | 48.9 µM
C=CCNC1=C2C[C@@H](C)C[C@@H](OC)[C@@H](OC(=O)CCCN)[C@H](C)/C=C(\C)[C@@H](OC(N)=O)[C@H](OC)/C=C\C=C(/C)C(=O)NC(=CC1=O)C2=O | > 79 µM
CN=NN(C)C(=O)NC | > 100 µM
C[C@]12CCC(=O)C=C1CC[C@@H]1C2CC[C@]2(C)c3nn(-c4ccc(F)cc4)nc3CC12 (stereo partly specified) | > 100 µM
COc1ccc2c(c1)CCc1c-2[nH]c2ccc(OC)cc12 | > 100 µM
Cc1cc(NC(=O)c2ccc(C)c(Nc3nccc(-c4cccnc4)n3)c2)cc(-n2cnc(C)c2)c1 | 11.8 µM
CCN(CC)CC(C)(C)C(=O)/C=C/c1ccc(Cl)c(Cl)c1 | 8.91 µM
O=C(c1ccccc1)c1c(-c2ccccc2)[nH]n(-c2ccc([N+](=O)[O-])cc2)c(=O)c1=O | > 100 µM
O=C1c2cc3c(cc2CC12Cc1cc4c(cc1C2=O)CCC4)CCCC3 (stereo unspecified) | > 100 µM
CC(=O)O[C@@H]1C[C@]2(C(C)C)O[C@@]1(C)[C@@H]1CCC(C)=C1[C@@H]2OC(=O)/C=C/c1ccccc1 | > 100 µM
CCN1c2nc3ccccc3nc2N(CC)c2nc3ccccc3nc21 | > 100 µM

The reported numbers originate from PubChem BioAssay (NCI).
